Where a name gives a salt, the structure may show the parent alone.
// reported melting point per item

| molecule | reportedEndpoint | testResult |
| --- | --- | --- |
| CN(C)Cc1cccnc1Oc1ccc(Cl)cc1 (as salt: hydrochloride) [Example 106] | melting point | 195 to 197 °C |
| CNCc1cc2ccccc2nc1Oc1ccc(Cl)c(Cl)c1 (as salt: HCl) [Example 104] | melting point | 224 to 226 °C |
| CNCc1cnccc1Oc1ccc(Cl)c(Cl)c1 (as salt: hydrochloride) [Example 103] | melting point | 198 to 203 °C |

q: Could you share which melting point value was measured for CNCc1cccnc1Oc1ccc(Cl)c(Cl)c1 (as salt: HCl) [Example 105] ?
a: 198 to 203 °C

Reference source: patent US7129234B2
